Molecular target: TAS2R14 (Homo sapiens)
Sequence (Q9NYV8 1-317): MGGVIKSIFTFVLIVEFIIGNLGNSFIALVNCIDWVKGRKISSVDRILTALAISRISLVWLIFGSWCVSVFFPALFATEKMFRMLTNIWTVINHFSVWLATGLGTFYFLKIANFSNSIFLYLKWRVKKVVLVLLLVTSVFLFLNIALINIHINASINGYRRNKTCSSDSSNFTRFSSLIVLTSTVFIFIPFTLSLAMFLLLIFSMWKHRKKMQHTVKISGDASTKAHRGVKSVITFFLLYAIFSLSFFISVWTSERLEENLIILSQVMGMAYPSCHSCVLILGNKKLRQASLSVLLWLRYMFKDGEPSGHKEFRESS
Experiment: cell-based
Reported pEC50 values for the following molecules.
# log scale: pEC50 equals minus log10 of the concentration in mol/L

| Molecule | Readout name | Measured value |
| --- | --- | --- |
| NC(=O)c1cc(Nc2ccccc2C(=O)O)cc(C(F)(F)F)c1 [lw154] | pEC50 | 5.14 |
| COc1cccc(COc2cc(Nc3ccccc3C(=O)O)ccc2C)c1 [lwlb18] | pEC50 | 5.82 |
| FC(F)(F)c1cc(-c2ccccc2)nc(Nc2ccccc2-c2nnn[nH]2)n1 [lw341] | pEC50 | 5.96 |
| CCCCc1cc2cccc(C(=O)O)c2n1-c1cccc(C(F)(F)F)c1 [lw273] | pEC50 | 5.08 |

In: Bench note: what pEC50 did Cc1c(Nc2ccccc2-c2nnn[nH]2)cccc1C(F)(F)F [lw086] show?
Out: 6.54

###

Biological target: TAS2R14 (Homo sapiens)
Sequence (Q9NYV8 1-317): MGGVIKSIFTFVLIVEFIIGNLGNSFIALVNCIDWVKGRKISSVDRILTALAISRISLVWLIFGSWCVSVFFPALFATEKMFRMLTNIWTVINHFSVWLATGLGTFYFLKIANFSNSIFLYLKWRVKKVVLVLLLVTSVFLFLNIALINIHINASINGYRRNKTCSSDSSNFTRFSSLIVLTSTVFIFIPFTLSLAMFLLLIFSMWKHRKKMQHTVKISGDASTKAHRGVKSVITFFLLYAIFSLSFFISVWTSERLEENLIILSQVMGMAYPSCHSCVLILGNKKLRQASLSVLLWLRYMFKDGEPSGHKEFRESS
Assay: cell-based
Set-up: species or system HEK293T
Conditions: HEK-293T, read-out: Emax[%flu acid]
API: label(entry) gives met if the entry's Emax is strictly smaller than 70%; on equality or larger values it gives not met.

Reference set (10 entries):
| Entry smiles | Discrete label |
| --- | --- |
| COc1cc(Nc2ccc(Cl)cc2-c2nnn[nH]2)cc(C(F)(F)F)c1 | met |
| FC(F)Oc1cccc(Nc2ccccc2-c2nnn[nH]2)c1 | not met |
| CC#Cc1ccc(Nc2ccccc2C(=O)O)cc1C(F)(F)F | not met |
| O=C(O)c1ccccc1Nc1cc([N+](=O)O)cc(C(F)(F)F)c1 | met |
| O=C1COc2c(cc(C(F)(F)F)cc2Nc2ccccc2C(=O)O)N1 | not met |
| FC(F)(F)c1cccc(Nc2ccccc2-c2cnn[nH]2)c1 | met |
| COc1cccc(COc2cc(Nc3ccccc3C(=O)O)ccc2C)c1 | met |
| O=C(O)c1cc([N+](=O)[O-])ccc1Nc1cccc(C(F)(F)F)c1 | not met |
| CCCCCNC(=O)c1ccc(Nc2ccccc2C(=O)O)cc1C(F)(F)F | met |
| COc1cccc(COc2cc(Nc3ccccc3C(=O)O)ccc2OC)c1 | not met |

In: Determine whether this compound shows Emax lower than 70% (ties excluded): "CCCCC#Cc1ccc(Nc2ccccc2C(=O)O)cc1C(F)(F)F"
Out: not met

In: Determine whether this compound shows Emax lower than 70% (ties excluded): "COc1ccc(Nc2ccccc2C(=O)O)cc1OCc1cccc(F)c1"
Out: not met

In: Determine whether this compound shows Emax lower than 70% (ties excluded): "Clc1cccc(Nc2ccccc2-c2nnn[nH]2)c1"
Out: met

In: Determine whether this compound shows Emax lower than 70% (ties excluded): "FC(F)(F)c1cc(Nc2ccccc2-c2nnn[nH]2)ccc1Cl"
Out: met

In: Determine whether this compound shows Emax lower than 70% (ties excluded): "COC(=O)c1cc(Nc2ccccc2-c2nnn[nH]2)cc(C(F)(F)F)c1"
Out: not met

In: Determine whether this compound shows Emax lower than 70% (ties excluded): "FC(F)(F)c1cc(-c2ccccc2)nc(Nc2ccccc2-c2nnn[nH]2)n1"
Out: not met

In: Determine whether this compound shows Emax lower than 70% (ties excluded): "FC(F)(F)c1cccc(Nc2ccccc2-c2cnoc2)c1"
Out: met

In: Determine whether this compound shows Emax lower than 70% (ties excluded): "NC(=O)c1cc(Nc2ccccc2-c2nnn[nH]2)cc(C(F)(F)F)c1"
Out: not met

In: Determine whether this compound shows Emax lower than 70% (ties excluded): "O=C(O)c1ccccc1Nc1cc(C(F)(F)F)cc(C(F)(F)F)c1Cl"
Out: not met

###

Reported IC50 values for the following compounds.
Target: TAS2R14 (Homo sapiens)
Assay: IP-One HTRF IP1 accumulation, HEK293T with Galpha-qi5
Type: cell-based
Numeric only. Scale: µM

Examples with answers:
| Compound | IC50, µM |
| --- | --- |
| O=C(Nc1ccccc1C(=O)O)c1ccc(OC(F)(F)F)cc1 [LF1] | 6.8 |
| O=C(c1cc(O)cc(C(F)(F)F)c1)N1CC(c2ccccc2)C1CO (stereo not drawn) [LF22] | 7.2 |

Next:
In: Bench note: what IC50 did Cc1[nH]nc(C(=O)Nc2ccc(C3CCC(F)(F)CC3)cc2)c1C(=O)O [LF14] show?
Out: 22

###

Target: TAS2R14 (Homo sapiens)
Assay: cell-based
Readout name: pEC50
# log scale: pEC50 equals minus log10 of the concentration in mol/L

Examples with answers:
| Compound | Readout name | Measured value |
| --- | --- | --- |
| O=Cc1ccc(Cl)cc1Nc1ccccc1C(=O)O [lw231] | pEC50 | 5.48 |
| FS(F)(F)(F)(F)c1cccc(Nc2ccccc2-c2nnn[nH]2)c1 [lw071] | pEC50 | 6.64 |
| Clc1cccc(Nc2ccccc2-c2nnn[nH]2)c1 [lw072] | pEC50 | 6.77 |
| NC(=O)c1cc(Nc2ccccc2-c2nnn[nH]2)cc(C(F)(F)F)c1 [lw183] | pEC50 | 5.22 |
| COc1cccc(COc2cccc(Nc3ccccc3C(=O)O)c2)c1 [lwmr05] | pEC50 | 6.13 |
| O=C(O)c1ccccc1Nc1ccc(N2CCOCC2)c(C(F)(F)F)c1 [lw101] | pEC50 | 5.70 |

In: Bench note: what pEC50 did O=C(O)c1ccccc1Nc1cc(OCc2ccccc2)cc(C(F)(F)F)c1 [lw105] show?
Out: 5.77

In: Bench note: what pEC50 did FC(F)(F)c1cccc(Nc2ccccc2-c2cnoc2)c1 [lwph005] show?
Out: 4.92

In: Bench note: what pEC50 did O=C(O)c1ccccc1Nc1cc(N2CCOCC2)cc(C(F)(F)F)c1 [lw167] show?
Out: 6.15

In: Bench note: what pEC50 did Cc1ccc(Nc2ccccc2C(=O)O)cc1OCc1ccc(Cl)cc1 [lwlb17] show?
Out: 5.89

###

Reported Emax values for the following molecules.
Biological target: TAS2R14 (Homo sapiens, UniProt Q9NYV8)
Test: cell-based
Design: species or system HEK293T
Details: HEK-293T, read-out: Emax[%flu acid]
Numeric only. Scale: %

| Molecule | Emax [%] |
| --- | --- |
| FC(F)(F)Oc1cccc(Nc2ccccc2-c2nnn[nH]2)c1 | 72 |
| FC(F)(F)c1cc(Nc2ccccc2-c2nnn[nH]2)cc(OC2CC2)c1 | 68 |

In: Bench note: what Emax did "O=C(O)c1ccccc1Nc1cc(C#CC2CC2)cc(C(F)(F)F)c1" show?
Out: 57

In: Bench note: what Emax did "COC(=O)c1cccc(C(=O)O)c1Nc1cccc(C(F)(F)F)c1" show?
Out: 42

In: Bench note: what Emax did "O=C(O)c1ccccc1Nc1ccc(Cl)c(C(F)(F)F)c1" show?
Out: 67

In: Bench note: what Emax did "Oc1cc(-c2ccccc2Nc2cccc(C(F)(F)F)c2)on1" show?
Out: 38

###

Reported pEC50 values for the following compounds.
Target: UniProt:Q9NYV8
Sequence (Q9NYV8 1-317): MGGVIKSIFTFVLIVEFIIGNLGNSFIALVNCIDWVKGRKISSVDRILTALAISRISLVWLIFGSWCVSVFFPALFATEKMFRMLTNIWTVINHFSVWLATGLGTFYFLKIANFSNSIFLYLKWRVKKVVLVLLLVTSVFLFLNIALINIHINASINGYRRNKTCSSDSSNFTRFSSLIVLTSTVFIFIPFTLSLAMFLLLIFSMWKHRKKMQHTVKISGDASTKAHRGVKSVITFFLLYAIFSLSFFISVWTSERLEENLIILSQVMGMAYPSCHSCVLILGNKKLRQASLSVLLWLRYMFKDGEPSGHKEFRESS
Test: cell-based
# log scale: pEC50 equals minus log10 of the concentration in mol/L

Examples with answers:
| Compound | Measured value |
| --- | --- |
| NC(=O)c1ccccc1Nc1cccc(C(F)(F)F)c1 [lw208] | 4.96 |
| FC(F)(F)c1cc(Nc2ccccc2-c2nnn[nH]2)c(Cl)c(C(F)(F)F)c1 [lwjk06] | 6.77 |
| FC(F)(F)c1cccc(Nc2ccccc2-c2cnn[nH]2)c1 [lwtp009] | 4.92 |
| O=C(O)c1ccccc1Nc1cc(OC2CC2)cc(C(F)(F)F)c1 [lw103] | 6.51 |
| O=C(O)c1ccccc1Nc1cc([N+](=O)O)cc(C(F)(F)F)c1 [lw119] | 6.72 |

Next:
In: For UniProt:Q9NYV8, provide pEC50 of COc1cccc(COc2cc(Nc3ccccc3C(=O)O)ccc2OC)c1 [lwbk21] please.
Out: 5.68
